// reported z-score for each item listed
- Test protocol: change in splice reporter luminescence, either direction, cell-based, HEK293, spliceosome inhibition project, primary screen (AID 1101);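 further: HEK293 cells carrying a splicing-competent luciferase reporter gene; test concentration not given here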
- Reported conditions: HEK293 splicing luciferase reporter, 24 h, higher = more signal, called active from +8 up or from −8 down
Write the value as a bare number.

{"columns": ["Compound", "Measure name", "Value observed"],
 "data": [
  ["Cc1ccc(S[C@]2(C(=O)O)CC(=O)N(Cc3ccccc3C(F)(F)F)[C@@H]2c2ccc(CO)cc2)cc1", "z-score", 0.0922],
  ["CCC[C@@H]1C[C@@]1(CCC)[C@@H](NC(=O)c1cccs1)c1ccc(Cl)cc1", "z-score", -1.15],
  ["COc1ccc([Si](C)(C)[C@@H]2[C@@H](CC(=O)N(CCO)Cc3ccccc3)O[C@]3(C(=O)N(Cc4ccc(N5CCOC5=O)cc4)c4ccccc43)[C@H]2C)cc1", "z-score", 0.24],
  ["COCCCNC(=O)[C@@]1(Cc2ccccc2N=[N+]=[N-])N=C(c2ccc(OCCCO)cc2)O[C@H]1c1ccccc1CN=[N+]=[N-]", "z-score", -0.456],
  ["COc1ccccc1CN1C(=O)c2ccccc2[C@@]2(Cc3ccccc3N(C3CC3)C2=O)[C@@H]1c1ccc(CO)cc1", "z-score", 0.312]
]}

Query: Answer with the recorded z-score of COC(=O)c1ccc(OC)c(/C=C\CC(CCc2ccccc2)OC(=O)c2ccncc2)c1 (configuration not stated) only.
Reply: -0.387

Query: Determine from records and report z-score for COC(=O)[C@@]1(Cc2ccc(F)cc2)[C@H]2c3cc(C(=O)N(C)C)n(Cc4ccc(C)c(F)c4F)c3C[C@H]2CN1C(=O)c1ccccc1
Reply: -0.509

---

- Test protocol: hepatitis C replication reporter changes, two-sided – Huh7 cells, luciferase reporter, HCV replication inhibitor project, primary screen (AID 1109);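 further: huh7 hepatoma cells harbouring a luciferase neomycin HCV replicon reporter; luciferase luminescence as measure of HCV replicon replication; test concentration not given here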
- Reported conditions: Huh7 HCV replicon luciferase reporter, 48 h; higher = more signal
Measure name: z-score
Quick one: just the number, no unit, thanks!

Before answering, review these 3 worked examples.
{"columns": ["Smiles str", "Value observed"],
 "data": [
  ["COC(=O)[C@@]1(Cc2ccc(F)cc2)[C@H]2c3cc(C(=O)N(C)C)n(CCSCCO)c3C[C@H]2CN1C(=O)c1ccccc1", -0.663],
  ["COc1cccc(C)c1NC(=O)O[C@H]1[C@H](OC(=O)Nc2ccccc2)[C@H](OC(=O)Nc2ccccc2)[C@@H](OC)O[C@@H]1CO", -2.96],
  ["COCCOC(=O)N1C(=O)[C@@]2(c3cc(C#Cc4ccc(OC)cc4)ccc31)[C@H](c1ccc(OCCO)cc1)N1[C@H](c3ccccc3)[C@H](c3ccccc3)OC(=O)[C@H]1[C@@H]2C(N)=O", -2.33]
]}

Now consider a different compound.
Query: Give z-score for O=C1c2ccccc2[C@](Cc2ccccc2I)(C(=O)NC2CC2)[C@H](c2ccc(CO)cc2)N1Cc1ccccc1Cl
Reply: -1.4

---

Recorded z-score, one value per entry.
- Assayed target: Homeobox protein Hox-A13 (Mus musculus)
- Test protocol: disruptors of Hoxa13 oligonucleotide interaction – biochemical, fluorescence polarization, labeled oligonucleotide, primary screen (AID 1185)
- Reported conditions: Hoxa13:DNA binding, 15 min, higher = more signal, called active from +8 up or from −8 down
Enter the number alone.

{"columns": ["Molecule", "z-score"],
 "data": [
  ["COc1ccc(C(=O)Nc2ccc3c(c2)[C@]2(O[C@@H](CCO)[C@H]([Si](C)(C)c4ccc(OC)cc4)[C@H]2C)C(=O)N3Cc2ccccc2)cc1", -1.01]
]}

Query: Give the value of z-score reported for the following: COc1ccc(C#Cc2ccc3c(c2)[C@]2(C(=O)N3)[C@H](c3ccc(OCCO)cc3)N3[C@H](c4ccccc4)[C@H](c4ccccc4)OC(=O)[C@H]3[C@@H]2C(=O)N2CCN(c3ncccn3)CC2)cc1
Reply: 1.1

Query: Check the records and state z-score for O=C1NC(=O)C2C1C=CC(C(O)c1ccc(-c3ccccc3)s1)N2Nc1ccccn1 (stereo not given)
Reply: -3.88

Query: Quote z-score reported for C=CCOC(=O)[C@@H]1[C@H]2C(=O)O[C@H](c3ccccc3)[C@H](c3ccccc3)N2[C@H](c2ccc(OCCOC(=O)[C@@H]3C[C@@H]4C(=O)N5CCC[C@H]5C(=O)N4[C@@H]3c3cccc(OCCO)c3)cc2)[C@@]12C(=O)Nc1ccc(I)cc12 please.
Reply: 1.17

Query: Could you please provide reported z-score for COc1ccc(C(=O)Nc2ccc(CN3C(=O)[C@@]4(O[C@@H](CC(=O)N5Cc6ccccc6C[C@H]5CO)[C@H]([Si](C)(C)c5ccc(OC)cc5)[C@H]4C)c4ccccc43)cc2)cc1 ? Thanks!
Reply: -2.48
